Target: 3',5'-cyclic-AMP phosphodiesterase 4B (Homo sapiens, UniProt Q07343)
Sequence (Q07343 whole entry): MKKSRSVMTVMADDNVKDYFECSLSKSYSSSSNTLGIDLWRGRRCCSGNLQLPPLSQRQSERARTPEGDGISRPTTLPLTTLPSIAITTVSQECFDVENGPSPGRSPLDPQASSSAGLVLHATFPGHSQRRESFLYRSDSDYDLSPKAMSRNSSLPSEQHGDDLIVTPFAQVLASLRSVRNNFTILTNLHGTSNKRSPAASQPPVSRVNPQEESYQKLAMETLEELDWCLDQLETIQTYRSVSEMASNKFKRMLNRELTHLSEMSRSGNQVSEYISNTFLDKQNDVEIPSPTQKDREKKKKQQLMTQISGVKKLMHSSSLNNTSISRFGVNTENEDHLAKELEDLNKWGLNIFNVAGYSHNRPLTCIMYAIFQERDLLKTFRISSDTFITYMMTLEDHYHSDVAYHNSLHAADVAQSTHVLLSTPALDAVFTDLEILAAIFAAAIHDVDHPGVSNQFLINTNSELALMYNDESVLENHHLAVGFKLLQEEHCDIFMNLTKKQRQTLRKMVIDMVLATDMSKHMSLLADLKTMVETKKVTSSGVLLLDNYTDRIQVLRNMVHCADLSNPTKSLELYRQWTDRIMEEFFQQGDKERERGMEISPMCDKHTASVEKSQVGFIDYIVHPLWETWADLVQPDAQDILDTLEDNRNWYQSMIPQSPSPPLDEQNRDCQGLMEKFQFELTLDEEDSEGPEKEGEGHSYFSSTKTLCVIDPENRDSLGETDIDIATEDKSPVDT
Assay: Inhibition of human PDE4B
Conditions: read-out: IC50
measure: IC50 (nM)

Consider the reported IC50 for these compounds:
* CCc1nc(Nc2ccc(CC(=O)O)cc2)nc(-c2cccc(Cl)c2)n1 | 781
* CCc1nc(Nc2ccc(-c3nn[nH]n3)cc2)nc(-c2cccc(Cl)c2)n1 | 126
* O=C(O)Cc1ccc(Nc2nc(-c3cccc(Cl)c3)nc(C3CC3)n2)cc1 | 237

(a) Cc1nc(Nc2ccc(CC(=O)O)cc2)nc(-c2ccc(Cl)s2)n1
(b) CC(C)c1nc(Nc2ccc(CC(=O)O)cc2)nc(-c2ccc(Cl)s2)n1
Higher IC50 between a and b ? Respond using the label that marks the chosen record.
b

---

Organism: Homo sapiens
Assay: Selectivity index, ratio of IC50 for human PDE4D to IC50 for human PDE4B
measure: Ratio IC50

These recorded examples may help you get a feel for the data.
- CCc1nc(Nc2ccc(C#N)cc2)nc(-c2cccc(Cl)c2)n1: 1.1
- O=C(O)c1ccc(Nc2nc(-c3cccc(Cl)c3)nc(C3CC3)n2)cc1: 0.4
- Cc1nc(Nc2ccc(CC(=O)O)cc2)nc(-c2ccco2)n1: 1.2
- O=C1CCC(NC2=NC(C3CC3)NC(c3cccc(Cl)c3)=N2)CN1 (stereo unspecified): 2
- O=C(O)Cc1ccc(CNc2nc(-c3cccc(Cl)c3)nc(C3CC3)n2)cc1: 0.86
- CCc1nc(Nc2ccc(C(=O)O)cc2)nc(-c2cccc(Cl)c2)n1: 0.9

(I) CCc1nc(Nc2ccc(C(=O)O)cc2)nc(-c2ccc(Cl)s2)n1
(II) CCc1nc(Nc2ccc(CC(=O)O)cc2)nc(-c2ccc(Cl)s2)n1
(III) CCc1nc(Nc2ccc(F)cc2)nc(-c2ccc(Cl)s2)n1
(IV) CCc1nc(Nc2ccc(CC#N)cc2)nc(-c2cccc(Cl)c2)n1
(V) CCc1nc(Nc2ccc(NS(N)(=O)=O)cc2)nc(-c2cccc(Cl)c2)n1
Put the entries in order of Ratio IC50, starting with the largest number. In your reply, arrange the labels in the requested order.
II, I, V, III, IV

---

Species on record: Homo sapiens
Experiment: Selectivity index, ratio of IC50 for human PDE4D to IC50 for human PDE4B
measure: Ratio IC50

- CCc1nc(Nc2ccc(CC(=O)O)cc2)nc(-c2ccc(F)cc2)n1: 0.5
- O=C(O)Cc1ccc(CNc2nc(-c3ccc(Cl)cc3)nc(C3CC3)n2)cc1: 0.38
- O=C(O)Cc1ccc(Nc2nc(-c3ccc(Cl)cc3)nc(C3CC3)n2)cc1: 1.5

(a) CCc1nc(Nc2ccc(-c3nnn[nH]3)cc2)nc(-c2cccc(Cl)c2)n1
(b) CCc1nc(Nc2ccc(C(C)(C)C(=O)O)cc2)nc(-c2cccc(Cl)c2)n1
Between the entries labeled a and b , whose measured Ratio IC50 is lower? Please identify the chosen entry by its label.
b

---

Target: 3',5'-cyclic-AMP phosphodiesterase 4D (Homo sapiens)
Test: Inhibition of human PDE4D
Conditions: read-out: IC50
pIC50: −log10 of the molar value.
measure: pIC50

* O=C(O)Cc1ccc(Nc2nc(-c3cccc(F)c3)nc(C3CC3)n2)cc1 | 5.68

(1) O=C(O)c1ccc(Nc2nc(-c3cccc(Cl)c3)nc(C3CC3)n2)cc1
(2) O=C(O)Cc1ccc(Nc2nc(-c3ccc(Cl)cc3)nc(C3CC3)n2)cc1
(3) CC(C)c1nc(Nc2ccc(CC(=O)O)cc2)nc(-c2ccc(Cl)s2)n1
(4) O=C(O)c1ccc(Nc2nc(-c3ccc(Cl)cc3)nc(C3CC3)n2)cc1
Hey, quick one: sort these by pIC50, largest value first please. List the labels according to the requested ordering.
1, 4, 3, 2

---

Target: 3',5'-cyclic-AMP phosphodiesterase 4D (Homo sapiens, UniProt Q08499)
Sequence (Q08499 whole entry): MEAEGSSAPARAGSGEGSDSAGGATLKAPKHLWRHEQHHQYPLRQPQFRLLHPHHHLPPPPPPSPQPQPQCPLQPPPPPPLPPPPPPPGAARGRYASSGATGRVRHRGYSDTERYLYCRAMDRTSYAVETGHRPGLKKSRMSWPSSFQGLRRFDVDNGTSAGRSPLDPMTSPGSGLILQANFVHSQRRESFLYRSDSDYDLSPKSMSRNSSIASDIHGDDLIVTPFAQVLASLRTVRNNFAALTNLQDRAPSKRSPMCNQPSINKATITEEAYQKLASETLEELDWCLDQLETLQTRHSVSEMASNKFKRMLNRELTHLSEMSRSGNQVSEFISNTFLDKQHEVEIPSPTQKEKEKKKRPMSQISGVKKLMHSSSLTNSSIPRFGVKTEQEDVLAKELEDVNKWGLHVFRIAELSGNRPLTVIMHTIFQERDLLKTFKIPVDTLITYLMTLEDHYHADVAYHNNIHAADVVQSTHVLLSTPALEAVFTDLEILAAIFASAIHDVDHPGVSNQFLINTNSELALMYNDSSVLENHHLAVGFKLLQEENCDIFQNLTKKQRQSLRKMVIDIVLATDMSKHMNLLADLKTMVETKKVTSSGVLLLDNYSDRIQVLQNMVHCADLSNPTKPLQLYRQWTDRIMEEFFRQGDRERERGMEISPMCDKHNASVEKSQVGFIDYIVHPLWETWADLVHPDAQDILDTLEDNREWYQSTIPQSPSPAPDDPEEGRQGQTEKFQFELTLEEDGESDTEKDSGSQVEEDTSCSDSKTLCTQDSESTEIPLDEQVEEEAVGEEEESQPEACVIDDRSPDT
Assay: Inhibition of human PDE4D
Details: read-out: IC50
pIC50: −log10 of the molar value.
measure: pIC50

• O=C(O)Cc1ccc(CNc2nc(-c3cccc(Cl)c3)nc(C3CC3)n2)cc1 = 6.14

(1) CC(C)c1nc(Nc2ccc(F)cc2)nc(-c2ccc(Cl)s2)n1
(2) CCc1nc(Nc2ccc(F)cc2)nc(-c2ccc(Cl)s2)n1
Endpoint returns whichever of 1 and 2 has the numerically higher pIC50. Let me know the label of the one you choose.
2

(a) O=C(O)Cc1ccc(Nc2nc(-c3cccc(Cl)c3)nc(C3CC3)n2)cc1
(b) O=C(O)Cc1ccc(Oc2nc(-c3cccc(Cl)c3)nc(C3CC3)n2)cc1
(c) CCc1nc(Nc2ccc(CC#N)cc2)nc(-c2cccc(Cl)c2)n1
Rank the 3 compounds: largest pIC50 first, smallest last. Answer by writing out the labels in the requested order.
c, a, b

(1) O=C(O)Cc1ccc(CNc2nc(-c3ccc(Cl)cc3)nc(C3CC3)n2)cc1
(2) O=C(O)Cc1ccc(Nc2nc(-c3ccc(Cl)s3)nc(C3CC3)n2)cc1
Given the listed items, does 1 or 2 have the lesser reported pIC50? Write down the label attached to your selection.
2
(2: 5.83, 1: 6.07)

(P) Cc1nc(Nc2ccc(CC(=O)O)cc2)nc(-c2ccco2)n1
(Q) CCc1nc(Nc2ccc(-c3nn[nH]n3)cc2)nc(-c2cccc(Cl)c2)n1
From the items above, decide which of P and Q has the lower pIC50 reading. Reply with the label of the item you choose.
P
(P: 4.65, Q: 6.88)

---

Organism: Homo sapiens
Test: Selectivity index, ratio of IC50 for human PDE4D to IC50 for human PDE4B
measure: Ratio IC50

(A) CC(C)c1nc(Nc2ccc(CC(=O)O)cc2)nc(-c2ccc(Cl)s2)n1
(B) CCc1nc(Nc2ccc(Cc3nnn[nH]3)cc2)nc(-c2cccc(Cl)c2)n1
Which item exceeds the other in Ratio IC50, A or B ? Please reply using the label of the selected record.
A

---

Organism: Homo sapiens
Experiment: Selectivity index, ratio of IC50 for human PDE4D to IC50 for human PDE4B
measure: Ratio IC50

Known Ratio IC50 results, listed for orientation:
* O=C(O)Cc1ccc(Nc2nc(-c3cccc(F)c3)nc(C3CC3)n2)cc1 | 1.5
* O=C(O)Cc1ccc(Nc2nc(-c3cccc(Cl)c3)nc(C3CC3)n2)cc1 | 5
* CC(C)c1nc(Nc2ccc(C(=O)O)cc2)nc(-c2ccc(Cl)s2)n1 | 1

(a) O=C(O)Cc1ccc(Oc2nc(-c3cccc(Cl)c3)nc(C3CC3)n2)cc1
(b) O=C(O)Cc1ccc(Nc2nc(-c3ccc(Cl)s3)nc(C3CC3)n2)cc1
Identify the entry with the larger Ratio IC50. Options: a and b Refer to your chosen entry by its label in the reply.
b
(b: 5.9, a: 1.2)

---

Molecular target: 3',5'-cyclic-AMP phosphodiesterase 4B (Homo sapiens, UniProt Q07343)
Assay: Inhibition of human PDE4B
Conditions: read-out: IC50
pIC50: −log10 of the molar value.
measure: pIC50

Check out these entries, answers already filled in.
- O=C1CCC(NC2=NC(C3CC3)NC(c3cccc(Cl)c3)=N2)CN1 (stereo unspecified): 6.87
- CC(C)c1nc(Nc2ccc(C(=O)O)cc2)nc(-c2ccc(Cl)s2)n1: 6.66
- CCc1nc(Nc2ccc(CC(=O)O)cc2)nc(-c2ccoc2)n1: 5.56
- O=C(O)Cc1ccc(Oc2nc(-c3cccc(Cl)c3)nc(C3CC3)n2)cc1: 5.73
- O=C(O)Cc1ccc(Nc2nc(-c3ccc(Cl)s3)nc(C3CC3)n2)cc1: 6.60

(A) CCc1nc(Nc2ccc(NS(N)(=O)=O)cc2)nc(-c2cccc(Cl)c2)n1
(B) O=C(O)Cc1ccc(Nc2nc(-c3ccc(Cl)cc3)nc(C3CC3)n2)cc1
Field: lower recorded pIC50 (choose A or B ) Refer to your chosen entry by its label in the reply.
B
(B: 5.42, A: 6.40)

(a) CCc1nc(Nc2ccc(CC(=O)O)cc2)nc(-c2ccc(Cl)s2)n1
(b) Cc1nc(Nc2ccc(C(=O)O)cc2)nc(-c2ccc(Cl)s2)n1
Consider a and b . Which of these has its pIC50 at a higher number? Pick one; state its label.
a
(a: 6.42, b: 5.39)

(1) CCc1nc(Nc2ccc(C(=O)O)cc2)nc(-c2ccc(Cl)s2)n1
(2) CCc1nc(Nc2ccc(Cc3nnn[nH]3)cc2)nc(-c2cccc(Cl)c2)n1
(3) CC(C)c1nc(Nc2ccc(F)cc2)nc(-c2ccc(Cl)s2)n1
(4) CCc1nc(Nc2ccc(CC(=O)O)cc2)nc(-c2ccc(F)cc2)n1
(5) CCc1nc(Nc2ccc(CC#N)cc2)nc(-c2cccc(Cl)c2)n1
Hey, can you sort those molecules up there by pIC50, smallest first? In plain terms: list the labels in the order you were asked to.
3, 4, 1, 5, 2
(3: 5.05, 4: 5.84, 1: 6.58, 5: 6.78, 2: 7.16)

(A) O=C(O)Cc1ccc(Nc2nc(-c3cccc(F)c3)nc(C3CC3)n2)cc1
(B) O=C(O)Cc1ccc(CNc2nc(-c3cccc(Cl)c3)nc(C3CC3)n2)cc1
Quick check, higher pIC50 between A and B ? Return value: the label identifying the chosen record.
B
(B: 6.07, A: 5.84)

(1) CCc1nc(Nc2ccc(C(C)(C)C(=O)O)cc2)nc(-c2cccc(Cl)c2)n1
(2) O=C(O)c1ccc(Nc2nc(-c3ccc(Cl)cc3)nc(C3CC3)n2)cc1
Among 1 and 2 , whose measured pIC50 is the smaller figure? Which one? Tell me its label.
1
(1: 5.80, 2: 6.87)

(P) Cc1nc(Nc2ccc(CC(=O)O)cc2)nc(-c2ccco2)n1
(Q) O=C(O)Cc1ccc(CNc2nc(-c3ccc(Cl)cc3)nc(C3CC3)n2)cc1
(R) O=C(O)c1ccc(Nc2nc(-c3cccc(Cl)c3)nc(C3CC3)n2)cc1
Returns the items ordered by pIC50, from maximum to minimum. Labels, requested order.
R, Q, P

(1) CCc1nc(Nc2ccc(F)cc2)nc(-c2ccc(Cl)s2)n1
(2) CCc1nc(Nc2ccc(C#N)cc2)nc(-c2cccc(Cl)c2)n1
Look at 1 and 2 . Which one has the lower recorded pIC50 number? State your choice using its label.
1
(1: 5.86, 2: 7.92)

Entry source: ChEMBL document CHEMBL3351246
